Cited source for all entries: paper PMC5540273

Measured %Inh by item
- System: GSK3A
- TEST_CONDITIONS: concentration: 1 μM,replicates: in singlicate; n = 1;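 also: KINOMEscan kinase panel screen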
READOUT_NAME: %Inh

- C=CC(=O)Nc1cc2c(Nc3ccc(F)c(Cl)c3)ncnc2cc1OCCCN1CCOCC1: 0%
- CN(C)CCOc1ccc(-c2cc(-c3c[nH]nc3-c3ccccn3)ccn2)cc1: 0%
- CC(C)Nc1cc(-c2ccc3c(N)n[nH]c3c2)nc(N)n1: 0%
- Cl.Cl.Nc1nc(-c2ccc3c(N)n[nH]c3c2)cc(N2CCCC(NC(=O)c3ccccc3)C2)n1 (stereo not shown): 0%
- O=C(NCCCN1CCOC1=O)c1cnc(NCc2cc(Cl)ccc2Cl)nc1NC1CCCC1: 10%
- NC(=O)c1cc(-c2ccccc2)cc2c(C3CCNCC3)c[nH]c12: 0%
- CNC(=O)c1ccccc1Sc1ccc2c(/C=C/c3ccccn3)n[nH]c2c1: 0%

---

- Tested on: JAK1(JH2domain-pseudokinase)
- TEST_CONDITIONS: concentration: 1 μM,replicates: in singlicate; n = 1
READOUT_NAME: %Inh

* CC(C)Nc1cc(-c2ccc3c(N)n[nH]c3c2)nc(N)n1 | 5%
* Cc1n[nH]c2ccc(-c3cc(OC[C@@H](N)Cc4ccccc4)cnc3-c3ccoc3)cc12.O=C(O)C(F)(F)F.O=C(O)C(F)(F)F | 0%
* COc1ccc(C[C@@H](CN)NC(=O)c2cc(Br)c(-c3ccnc4[nH]ccc34)s2)cc1.Cl.Cl | 0%
* NC(=O)c1cc(-c2ccccc2)cc2c(C3CCNCC3)c[nH]c12 | 86%

---

- System: SGK
- TEST_CONDITIONS: concentration: 1 μM,replicates: in singlicate; n = 1
Measured %Inh by item
READOUT_NAME: %Inh (%)

• O=C(NCCCN1CCOC1=O)c1cnc(NCc2cc(Cl)ccc2Cl)nc1NC1CCCC1 = 0
• C=CC(=O)Nc1cc2c(Nc3ccc(F)c(Cl)c3)ncnc2cc1OCCCN1CCOCC1 = 15
• Cc1ccc(-n2nc(C(C)(C)C)cc2NC(=O)Nc2ccc(OCCN3CCOCC3)c3ccccc23)cc1 = 0
• CN(C)CCOc1ccc(-c2cc(-c3c[nH]nc3-c3ccccn3)ccn2)cc1 = 8
• C[C@@H](Oc1cc(-c2cnn(C3CCNCC3)c2)cnc1N)c1c(Cl)ccc(F)c1Cl = 0
• COc1ccc(C[C@@H](CN)NC(=O)c2cc(Br)c(-c3ccnc4[nH]ccc34)s2)cc1.Cl.Cl = 74
• Cl.Cl.NC[C@H](CC1CCCCC1)NC(=O)c1cc(Br)c(-c2ccnc3[nH]ccc23)s1 = 39
• C[C@H]1Oc2cc(cnc2N)-c2c(nn(C)c2C#N)CN(C)C(=O)c2ccc(F)cc21 = 0
• Cl.Cl.Nc1nc(-c2ccc3c(N)n[nH]c3c2)cc(N2CCCC(NC(=O)c3ccccc3)C2)n1 (stereo not drawn) = 7
• CC(C)N1C(=O)Cc2cc(Nc3ncc(C(F)(F)F)c(NCc4cccc(S(C)(=O)=O)c4)n3)ccc21 = 46
• CNC(=O)c1ccccc1Sc1ccc2c(/C=C/c3ccccn3)n[nH]c2c1 = 0
• CCn1c(-c2nonc2N)nc2c(C#CC(C)(C)O)nc(OCCN)cc21.Cl.Cl = 0

---

- Test system: CSF1R
- TEST_CONDITIONS: concentration: 1 μM,replicates: in singlicate; n = 1
Field: label. Allowed values: Criterion met (%Inh < 50%) or Criterion not met (%Inh >= 50%).

• Cl.Cl.Nc1nc(-c2ccc3c(N)n[nH]c3c2)cc(N2CCCC(NC(=O)c3ccccc3)C2)n1 (centres unmarked) = Criterion met
• CNC(=O)c1ccccc1Sc1ccc2c(/C=C/c3ccccn3)n[nH]c2c1 = Criterion not met
• Cc1n[nH]c2ccc(-c3cc(OC[C@@H](N)Cc4ccccc4)cnc3-c3ccoc3)cc12.O=C(O)C(F)(F)F.O=C(O)C(F)(F)F = Criterion met
• COc1ccc(C[C@@H](CN)NC(=O)c2cc(Br)c(-c3ccnc4[nH]ccc34)s2)cc1.Cl.Cl = Criterion not met
• Cl.Cl.NC[C@H](CC1CCCCC1)NC(=O)c1cc(Br)c(-c2ccnc3[nH]ccc23)s1 = Criterion met

---

- Test system: ACVRL1
- TEST_CONDITIONS: concentration: 1 μM,replicates: in singlicate; n = 1
Measured %Inh by item
READOUT_NAME: %Inh (%)

* CNC(=O)c1ccccc1Sc1ccc2c(/C=C/c3ccccn3)n[nH]c2c1 | 0
* CC(C)N1C(=O)Cc2cc(Nc3ncc(C(F)(F)F)c(NCc4cccc(S(C)(=O)=O)c4)n3)ccc21 | 0
* CC(C)Nc1cc(-c2ccc3c(N)n[nH]c3c2)nc(N)n1 | 0

---

- Test system: EPHA5
- TEST_CONDITIONS: concentration: 1 μM,replicates: in singlicate; n = 1
READOUT_NAME: %Inh (%)

* CN(C)CC(O)COc1ccc(Nc2nccc(-c3cnn4nc(N5CCOCC5)ccc34)n2)cc1 (centres unmarked) | 9
* Cc1ccc2c(-c3ccncc3)c(-c3ccc(F)cc3)nn2c1.Cl | 0
* CCN(CC)CCOc1ccc(Nc2ncc3cc(-c4c(Cl)cccc4Cl)c(=O)n(C)c3n2)cc1 | 99.8
* COc1ccc(C[C@@H](CN)NC(=O)c2cc(Br)c(-c3ccnc4[nH]ccc34)s2)cc1.Cl.Cl | 0
* C[C@H]1Oc2cc(cnc2N)-c2c(nn(C)c2C#N)CN(C)C(=O)c2ccc(F)cc21 | 24
* CCn1c(-c2nonc2N)nc2c(C#CC(C)(C)O)nc(OCCN)cc21.Cl.Cl | 0
* Cc1n[nH]c2ccc(-c3cc(OC[C@@H](N)Cc4ccccc4)cnc3-c3ccoc3)cc12.O=C(O)C(F)(F)F.O=C(O)C(F)(F)F | 0
* Nc1nc(Nc2ccccc2)cc(-c2ccc3c(N)n[nH]c3c2)n1 | 0

---

- Tested on: CLK4
- TEST_CONDITIONS: concentration: 1 μM,replicates: in singlicate; n = 1
READOUT_NAME: %Inh (%)

• Cc1n[nH]c2ccc(-c3cc(OC[C@@H](N)Cc4ccccc4)cnc3-c3ccoc3)cc12.O=C(O)C(F)(F)F.O=C(O)C(F)(F)F = 60
• Cl.Cl.NC[C@H](Cc1ccc(C(F)(F)F)cc1)NC(=O)c1cc(Br)c(-c2ccnc3[nH]ccc23)s1 = 57
• CCN(CC)CCCCNc1ncc2cc(-c3c(Cl)cccc3Cl)c(NC(=O)NC(C)(C)C)nc2n1 = 0
• C[C@@H](Oc1cc(-c2cnn(C3CCNCC3)c2)cnc1N)c1c(Cl)ccc(F)c1Cl = 0
• Cl.Cl.Nc1nc(-c2ccc3c(N)n[nH]c3c2)cc(N2CCCC(NC(=O)c3ccccc3)C2)n1 (stereo not drawn) = 0
• Cc1occc1-c1nc(N)c(OC[C@@H](N)Cc2c[nH]c3ccccc23)cc1-c1cc2c(C)n[nH]c2cn1 = 97.6

---

Measured %Inh by item
- Tested on: MLK2
- TEST_CONDITIONS: concentration: 1 μM,replicates: in singlicate; n = 1
READOUT_NAME: %Inh (%)

• Cc1cc(C(=O)Nc2ccc(Oc3ccc4nc(NC(=O)C5CC5)cn4n3)cc2)nn1-c1ccccc1 = 43
• Cc1cc2cn[nH]c2cc1-c1cccc2c(N)c(C(N)=O)nnc12 = 0
• O=C(NCCNc1ccnc(NCc2ccc(F)cc2)n1)c1cc2ccccc2s1 = 0
• Cc1ccc2c(-c3ccncc3)c(-c3ccc(F)cc3)nn2c1.Cl = 0
• C[C@@H](Oc1cc(-c2cnn(C3CCNCC3)c2)cnc1N)c1c(Cl)ccc(F)c1Cl = 0

---

- System: DCAMKL2
- Construct: gene DCLK2
- TEST_CONDITIONS: concentration: 1 μM,replicates: in singlicate; n = 1
READOUT_NAME: %Inh (%)

• CCn1c(-c2nonc2N)nc2c(C#CC(C)(C)O)nc(OCCN)cc21.Cl.Cl [GSK902056] = 0
• Cc1cc2cn[nH]c2cc1-c1cccc2c(N)c(C(N)=O)nnc12 = 37
• C=CC(=O)Nc1cc2c(Nc3ccc(F)c(Cl)c3)ncnc2cc1OCCCN1CCOCC1 [GW781483] = 1
• C[C@@H](Oc1cc(-c2cnn(C3CCNCC3)c2)cnc1N)c1c(Cl)ccc(F)c1Cl = 79
• O=C(NCCNc1ccnc(NCc2ccc(F)cc2)n1)c1cc2ccccc2s1 [GSK1379944] = 0
• Cl.Cl.NC[C@H](Cc1ccc(C(F)(F)F)cc1)NC(=O)c1cc(Br)c(-c2ccnc3[nH]ccc23)s1 [GSK1487252] = 0
• Cc1n[nH]c2ccc(-c3cc(OC[C@@H](N)Cc4ccccc4)cnc3-c3ccoc3)cc12.O=C(O)C(F)(F)F.O=C(O)C(F)(F)F [GSK507358] = 0
• CN(C)CCOc1ccc(-c2cc(-c3c[nH]nc3-c3ccccn3)ccn2)cc1 [GW835314] = 1
• CC(C)Nc1cc(-c2ccc3c(N)n[nH]c3c2)nc(N)n1 [GSK2221681] = 20
• C[C@H]1Oc2cc(cnc2N)-c2c(nn(C)c2C#N)CN(C)C(=O)c2ccc(F)cc21 = 91.8
• CCN(CC)CCOc1ccc(Nc2ncc3cc(-c4c(Cl)cccc4Cl)c(=O)n(C)c3n2)cc1 [SB-601273] = 41
• C[C@@H]1CCN(C(=O)CC#N)C[C@@H]1N(C)c1ncnc2[nH]ccc12 = 14
